Let's look at some compounds and their measured inhibition at 1 µM.
- Subject Of Test: CYP3A4 (Homo sapiens)
- Sequence (P08684 whole entry): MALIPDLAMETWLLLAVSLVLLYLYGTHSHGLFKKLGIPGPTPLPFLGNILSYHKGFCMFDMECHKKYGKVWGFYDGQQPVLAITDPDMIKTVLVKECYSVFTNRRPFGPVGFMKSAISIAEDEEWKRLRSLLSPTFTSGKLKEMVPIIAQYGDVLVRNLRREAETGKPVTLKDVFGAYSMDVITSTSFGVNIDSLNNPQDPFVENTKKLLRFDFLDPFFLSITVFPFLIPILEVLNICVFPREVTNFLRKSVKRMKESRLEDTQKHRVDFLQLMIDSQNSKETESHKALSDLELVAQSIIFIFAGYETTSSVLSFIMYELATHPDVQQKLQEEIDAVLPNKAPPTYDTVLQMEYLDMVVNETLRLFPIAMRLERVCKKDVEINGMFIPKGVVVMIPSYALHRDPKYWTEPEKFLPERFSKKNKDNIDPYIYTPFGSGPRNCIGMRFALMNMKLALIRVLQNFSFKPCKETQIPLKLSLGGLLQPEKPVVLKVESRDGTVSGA
- Test: Inhibition of CYP3A4 (unknown origin) expressed in insect cell microsomes at 1 uM in presence of DBF substrate by fluorescence based assay relative to control
- Assay type: ADME, Microsome
- Condition Info: recombinant CYP3A4 expressed in insect cell microsomes, probe DBF
Kindly answer with a numeric value in %, unit omitted.

• CC1=C(C(=O)OC(C)C)C(c2ccco2)NC(=S)N1 (racemic) = 3

As a next step, examine the compound that follows.
*Q* Respond only with inhibition at 1 µM recorded for CCOC(=O)C1=C(C)NC(=O)NC1c1ccsc1 (racemic)
*A* 4

This collection of values is drawn from ChEMBL document CHEMBL4765483.
